- TARGET OR SYSTEM: T1, NANP6 peptide (Plasmodium falciparum NF54)
- T1 construct: source: synthetic peptide (CPC Scientific)
- TEST SUMMARY: SPR; Carterra LSA; mAb amine-coupled to a CMD200M chip, peptide titrated in 2-fold steps up to 8 ug/mL without regeneration; 25 C; HBSTE (10 mM HEPES pH 7.4, 150 mM NaCl, 3 mM EDTA, 0.01% Tween 20); 1:1 Langmuir model; mean of triplicates; KD includes avidity for antigens with several repeats
- ASSAY CONTEXT: both partners purified
REPORTED ENDPOINT: Kd

Reference set (3 entries):
BINDER	DATA VALUE
Ky311 (antibody, V domains shown, source: CHO-3E7, purified (MabSelect SuRe LX)) VH: QMHLVESGGGVVQPGRSLRLSCVASGFTFNNHGMHWVRQAPGKGLEWVAVIWHDGSNKFYADSVNGRFIVSRDNSKNTLYLHMNSLRAEDTAVYYCARDFFVSGSYNYFDPWGQGTLVTVSS VL: EIVLTQSPVTLSLSPGERATLSCRASQSVSNYLAWYQQKPGQAPRLLIYDAANRATGTPARFSGSGSGTDFTLTISSLEPEDFAVYFCQQRSKWFTFGPGTKLDIK	≤ 0.0233 nM
Ky15.3 (antibody, V domains shown, source: CHO-3E7, purified (MabSelect SuRe LX)) VH: QVQLVESGGGVVQPGRSLRLSCVASGFTFSNAGMHWVRQTPGKGLEWVAIIWYDGSIKYYGESVKGRFTISRDNSKNTLYLEMSSLRAEDTAVYFCVRAYSGSLYDKYGMDVWGQGTTVIVSS VL: DIQMTQSPSTLSASVGDRVTISCRASQTISTWLAWFQQKPGKAPKLLIYAASSLQSGVPSRFSGSGSGTDFTLTISNLQPDDFATYYCQQFNSYWTFGQGTKVEIK	≤ 0.0174 nM
Ky15.11 (antibody, V domains shown, source: CHO-3E7, purified (MabSelect SuRe LX)) VH: QVQLVESGGGVVQPGRSLRLSCEASGFTFSNFGMHWVRQTPVKGLEWVAIIWFDGSYKYYTDSVKGRFTISRDNSKNTLYLQMNSLRAEDTAVYYCARARKGQRSDYYGSETSYTFDNWGQGTLVTVSS VL: DIQMTQSPSTLSASVGDRVTITCRASQSINGWLAWYQQKPGKAPKFLIYKASILESGIPSRFSGSGSGTEFTLTISSLQPDDFATYYCQQYSSYWTFGQGTKVEIK	≤ 0.0357 nM

Lookup result for Ky15.2 (antibody, V domains shown, source: CHO-3E7, purified (MabSelect SuRe LX)) VH: QVLLVESGGGVVQPGTSLRLSCVASGFSFSTYGMHWVRQSPGKGLEWVAIIWYDGGNKFYADSVQGRFTVSRDNSKNTLYLQMNSLRAEDTAVYYCAKAYRTSLDKKYGMDVWGQGTTVTVSS VL: DIQMTQSPSTLSASVGDRVTITCRASQSIASWLAWYQQKPGKAPKLLIYKASSLESGVPSRFSGSGSGTEFTLTISSLHPDDFATYFCQQFTSYWTFGQGTKVEIK ; measured Kd: 0.0713 nM

Lookup result for Ky15.5 (antibody, V domains shown, source: CHO-3E7, purified (MabSelect SuRe LX)) VH: QVQMVASGGGVVQPGRSLRLSCAVSGFTFRNFGMHWVRQDPGRGLEWVAIIWYDGSYEFYADSVKGRFTISRDNSKNTLYLQMNSLRAEDTAVYYCARSYGSLTGDETKYGMDVWGQGTTVTVSS VL: DIQMTQSPSTLSASVGDRVTITCRASQSISSWLAWFQQKPGKAPKLLIYKASSLESGVPSRFSGSGSGTEFTLTISSLQPDDFATYYCQQYKNYWTFGQGTKVEIK ; measured Kd: ≤ 0.0369 nM

Lookup result for Ky315 (antibody, V domains shown, source: CHO-3E7, purified (MabSelect SuRe LX)) VH: QVQLVESGGGVVQPGRSLRLSCAASGFTLSNYGVHWVRQAPGTGLEWVALIWYDGSNKFYADSVKGRFTISRDNSMDIVYLQMNNLRAEDTALYYCVRPGIAAAGSNYYAMDVWGQGTAVTVSS VL: EIVMTQSPATLSMSPGERATLSCRASQSVGSDLAWFQQKPGQAPRLLIYGAFTRATGIPARFSGSGSGSEFTLTISSLQSEDFAVYYCQQYNRWWTFGQGTKVEMK ; measured Kd: 0.0723 nM

Lookup result for mAb 317 (antibody, V domains shown, also called 31715 (label with citation mark 15)) VH: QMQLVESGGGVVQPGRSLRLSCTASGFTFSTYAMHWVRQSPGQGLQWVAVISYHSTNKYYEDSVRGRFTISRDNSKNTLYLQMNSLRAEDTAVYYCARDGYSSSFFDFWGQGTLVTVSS VL: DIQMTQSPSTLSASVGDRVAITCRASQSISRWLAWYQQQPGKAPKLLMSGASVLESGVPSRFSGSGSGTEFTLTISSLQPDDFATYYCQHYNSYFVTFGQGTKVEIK ; measured Kd: 0.404 nM

Lookup result for Ky230 (antibody, V domains shown, source: CHO-3E7, purified (MabSelect SuRe LX)) VH: QVQLVESGGGVVQPGRSLRLSCAASGFTFSDYGMHWVRQAPGKGLEWVAIIWHDGSNKYYVDSVKGRFTISRDNSKNTLYLQMNSLRAEDTAVYYCARAASSFGSGFDYWGQGTLVTVSS VL: DVVMTQSPLSLPVTLGQPASIFCRSSQSLVYSDGNTYLNWFQRRPGQSPRRLIYKVSDRDSGVPDRFSGSGSGTDFTLQISRVEAEDVGVYYCMQGTHWPPTFGQGTKVEIK ; measured Kd: 0.257 nM

Lookup result for Ky15.10 (antibody, V domains shown, source: CHO-3E7, purified (MabSelect SuRe LX)) VH: QVQLVESGGGVVQPGRSLRLSCAASGFTFSNSGMHWVRQVPGKGLEWVAIIWYDGSNKYYADSVKGRFSVSRDNSENTLYLQMSNLRAEDTAVYYCVRAYFDSENLYDYYGMDVWGQGTTVTVSS VL: DIQMTQSPSTLSASVGDRVTITCRASQSISRWLAWFQKKPGKAPKLLIYTASNLESGVPSRFSGSGSGTEFTLTISSLQPDDFATYYCQQYYNYWTFGQGTKVEVK ; measured Kd: 0.0153 nM

Lookup result for Ky224 (antibody, V domains shown, source: CHO-3E7, purified (MabSelect SuRe LX)) VH: QVQLVESGGGVVQPGRSLRLSCAASGFTFSVYGMHWVRQAPGKGLEWVAVIWYDGSNKIYADSVKGRFTISRDNSKNTLYLQMDSLSAADTAVYYCAKIGSSSFDYWGQGTLVIVSS VL: DIVMTQTPLSSPVTLGQPASISCRSSQSLVHSNGITYLSWLQQRPGQPPRLLLYEISNRFSGVPDRFSGSGTGTDFTLKISRVEAEDVGVYYCMQTTQFPITFGQGTRLEIK ; measured Kd: 1.34 nM
